target entity: OnOr1/2 (Ostrinia nubilalis, UniProt D3J5H4)
Construct: gene OR1; full-length ORF (421-425 residues for the set) in pGEMHE; cRNA co-injected with OnOr2 in Xenopus oocytes; dimer with Or83b ortholog; with Odorant receptor coreceptor
Sequence (D3J5H4 1-424): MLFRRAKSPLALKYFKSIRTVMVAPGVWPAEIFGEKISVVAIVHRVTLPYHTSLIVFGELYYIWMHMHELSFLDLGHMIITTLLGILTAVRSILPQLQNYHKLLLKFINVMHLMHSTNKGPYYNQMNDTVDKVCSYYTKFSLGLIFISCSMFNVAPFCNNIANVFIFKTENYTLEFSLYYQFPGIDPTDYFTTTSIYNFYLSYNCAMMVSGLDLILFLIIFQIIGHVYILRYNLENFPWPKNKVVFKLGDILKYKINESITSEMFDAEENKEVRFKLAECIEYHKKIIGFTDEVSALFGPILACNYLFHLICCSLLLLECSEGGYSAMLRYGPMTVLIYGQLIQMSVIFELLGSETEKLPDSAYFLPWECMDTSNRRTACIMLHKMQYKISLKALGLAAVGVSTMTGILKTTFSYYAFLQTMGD
Sequence (D3J5H5 1-473 partner): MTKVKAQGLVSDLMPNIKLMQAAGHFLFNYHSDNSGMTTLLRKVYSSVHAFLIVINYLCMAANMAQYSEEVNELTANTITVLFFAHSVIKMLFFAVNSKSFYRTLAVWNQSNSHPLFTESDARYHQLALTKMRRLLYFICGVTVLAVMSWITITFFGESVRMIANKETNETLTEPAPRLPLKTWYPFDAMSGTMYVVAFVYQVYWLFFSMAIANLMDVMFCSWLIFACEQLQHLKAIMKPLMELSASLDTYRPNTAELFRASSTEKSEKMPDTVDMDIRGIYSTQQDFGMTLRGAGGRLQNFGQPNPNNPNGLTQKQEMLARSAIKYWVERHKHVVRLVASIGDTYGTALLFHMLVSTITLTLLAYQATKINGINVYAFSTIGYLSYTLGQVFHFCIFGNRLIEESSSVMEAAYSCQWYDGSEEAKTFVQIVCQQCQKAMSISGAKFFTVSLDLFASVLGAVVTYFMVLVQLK
assay explanation: two-electrode voltage clamp, Xenopus oocytes
Format: cell-based
applied conditions: read-out: EC50 (μM ± SEM)
Here the recorded EC50 is given for each entry.

Known results for molecules:
• C/C=C/CCCCCCCCCCCOC(C)=O = 0.26 µM
• CCCC/C=C\CCCCCCCCOC(C)=O = 1.54 µM
• C/C=C\CCCCCCCCCCCOC(C)=O = 2.73 µM
• CC/C=C/CCCCCCCCCCOC(C)=O = 1.92 µM

Please look at the following molecule next.
Any idea what EC50 was measured for CC/C=C\CCCCCCCCCCOC(C)=O ?
0.34 µM
